# Tgt: Cyclin-dependent kinase 1 (Homo sapiens)
# Sequence (P06493 whole entry): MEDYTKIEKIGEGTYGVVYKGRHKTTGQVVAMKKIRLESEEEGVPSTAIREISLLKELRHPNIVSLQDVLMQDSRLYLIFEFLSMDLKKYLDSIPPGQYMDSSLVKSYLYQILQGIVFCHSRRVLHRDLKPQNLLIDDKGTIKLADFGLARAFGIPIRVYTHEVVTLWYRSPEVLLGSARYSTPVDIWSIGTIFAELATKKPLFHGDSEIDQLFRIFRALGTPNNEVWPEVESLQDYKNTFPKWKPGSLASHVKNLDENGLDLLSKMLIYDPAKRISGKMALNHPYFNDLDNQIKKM
Measurement Type: IC50 (µM)
// return numeric value only (unit: µM, not printed)

// known answers, use as guide
{"columns": ["Molecule", "Measurement Type", "Result"],
 "data": [
  ["NCCCCc1ccc2c(c1)-c1[nH]c3ccc([N+](=O)[O-])cc3c1CC(=O)N2 [Alsterpaullone derivative, 3]", "IC50", 0.08],
  ["N#CCCc1ccc2c(c1)-c1[nH]c3ccc([N+](=O)[O-])cc3c1CC(=O)N2", "IC50", 0.00023]
]}

Lookup: Entry under review: NCCCc1ccc2c(c1)-c1[nH]c3ccc([N+](=O)[O-])cc3c1CC(=O)N2 [Alsterpaullone derivative, 4] . Reported IC50?
Found: 0.027

###

This section lists pIC50 readings for Glycogen synthase kinase-3 beta (Homo sapiens, UniProt P49841).
API: returns pIC50 as number; meaning -log10 of concentration in mol/L.

{"columns": ["Smiles Input", "Result"],
 "data": [
  ["NCCCCc1ccc2c(c1)-c1[nH]c3ccc([N+](=O)[O-])cc3c1CC(=O)N2", 8.22]
]}

For the next question, use this compound.
Lookup: Endpoint output: pIC50 of "N#CCCc1ccc2c(c1)-c1[nH]c3ccc([N+](=O)[O-])cc3c1CC(=O)N2" . Value?
Found: 9.10

Entry source: BindingDB's records for doi:10.1002/cbic.200400099
